Molecular target: human PD-L1 (huPD-L1), on stably transduced CHO cells (human) (UniProt Q9NZQ7)
Sequence (Q9NZQ7 19-290): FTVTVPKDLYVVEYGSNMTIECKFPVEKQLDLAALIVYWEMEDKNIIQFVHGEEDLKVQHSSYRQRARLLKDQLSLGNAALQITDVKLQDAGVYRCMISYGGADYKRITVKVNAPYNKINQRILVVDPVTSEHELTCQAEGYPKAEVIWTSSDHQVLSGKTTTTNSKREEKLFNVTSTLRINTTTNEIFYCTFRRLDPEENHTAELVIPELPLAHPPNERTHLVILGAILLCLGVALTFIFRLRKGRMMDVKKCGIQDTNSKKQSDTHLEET
Experiment: flow cytometry on CHO cells stably expressing huPD-L1, 33.3 nM Fc fusion, PE anti-human Fc
outcome.measure: MFI at 33.3 nM (MFI)

Recorded results for 5 binders are shown here.
binder | outcome.measure | numeric.result
variant CD80 IgV-Fc E35D/M47L/A71G/L85M (Fc fusion) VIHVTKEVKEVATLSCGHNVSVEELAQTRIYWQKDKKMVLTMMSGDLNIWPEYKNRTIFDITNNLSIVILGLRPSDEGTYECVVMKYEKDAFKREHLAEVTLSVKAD | MFI at 33.3 nM | 8310
variant CD80 IgV-Fc Q27L/E35D/M47V/I61V/L85M (Fc fusion) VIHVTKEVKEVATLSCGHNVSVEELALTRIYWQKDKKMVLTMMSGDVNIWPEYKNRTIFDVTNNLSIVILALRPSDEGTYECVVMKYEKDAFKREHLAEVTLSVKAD | MFI at 33.3 nM | 2700
variant CD80 IgV-Fc E35D/M47V (Fc fusion) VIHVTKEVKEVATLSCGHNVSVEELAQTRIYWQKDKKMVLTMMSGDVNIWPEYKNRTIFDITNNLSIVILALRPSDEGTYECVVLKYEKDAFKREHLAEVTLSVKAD | MFI at 33.3 nM | 2940
variant CD80 IgV-Fc E35D/D46E (Fc fusion) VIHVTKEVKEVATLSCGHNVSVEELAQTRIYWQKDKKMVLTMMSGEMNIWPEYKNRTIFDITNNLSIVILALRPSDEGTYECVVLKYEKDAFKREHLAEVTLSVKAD | MFI at 33.3 nM | 3760
variant CD80 IgV-Fc M47I/A71G (Fc fusion) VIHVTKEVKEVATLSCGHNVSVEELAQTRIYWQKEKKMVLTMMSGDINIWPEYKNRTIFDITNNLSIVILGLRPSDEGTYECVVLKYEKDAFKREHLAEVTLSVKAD | MFI at 33.3 nM | 5100

[P] variant CD80 IgV-Fc H18Y/E35D/M47L/A71G/A91S (Fc fusion) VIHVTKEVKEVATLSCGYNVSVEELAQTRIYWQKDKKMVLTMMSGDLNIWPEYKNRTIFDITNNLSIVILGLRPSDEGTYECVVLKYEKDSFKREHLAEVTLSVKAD
[Q] variant CD80 IgV-Fc E35D/L97R (Fc fusion) VIHVTKEVKEVATLSCGHNVSVEELAQTRIYWQKDKKMVLTMMSGDMNIWPEYKNRTIFDITNNLSIVILALRPSDEGTYECVVLKYEKDAFKREHRAEVTLSVKAD
Ask | Lowest MFI at 33.3 nM? choose P or Q Use the label to indicate which entry you chose.
Reply | Q
(Q: 2610 MFI, P: 7580 MFI)

[1] variant CD80 IgV-Fc E35D/D46E/M47I (Fc fusion) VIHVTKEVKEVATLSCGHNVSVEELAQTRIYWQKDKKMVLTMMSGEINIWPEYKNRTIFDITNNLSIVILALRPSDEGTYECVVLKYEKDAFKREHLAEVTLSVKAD
[2] variant CD80 IgV-Fc D46V/M47I/A71G (Fc fusion) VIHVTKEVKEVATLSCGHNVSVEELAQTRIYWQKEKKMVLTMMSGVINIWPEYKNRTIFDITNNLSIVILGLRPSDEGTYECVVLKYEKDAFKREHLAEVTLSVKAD
Ask | Lowest MFI at 33.3 nM? choose 1 or 2 Use the label to indicate which entry you chose.
Reply | 1

Source of measurements: patent US20220177587A1
